Test system: MS2 coat protein
experiment.notes: apparent Kd, MS2 coat protein; higher = weaker binding; RNA-MaP array; FMN 200 µM where present
condition.info: designed as: OFF switch for flavin mononucleotide; no ligand
I'd be grateful if you could share measured apparent Kd for these entries.
Quick reminder: number only, in nM, skip the unit.

### Prompt Query: apparent Kd; subject: CUGUUACAUGAGGAUCACCCAUGUCAGGAUAUUUCUAUAGCGUCCUGCCGACGCAUAGAAAGAAGGGAUGGUGA
### Response 48.6

### Prompt Query: apparent Kd; subject: GAGCGAAAGCUCAAUGUCGAUAGCAGAAGGACAUGUAAAAUCAUGAAAACAUGAGGAUCACCCAUGUAGGAUAUGCUAUCGACU
### Response 23

### Prompt Query: apparent Kd; subject: AAUGUUUGAUUCCACUUAUACAUGAGGAUCACCCAUGUUAUCGAGGAUAUGCAUUAGAGUGUUUAGCAGAAGGCGAUGUAAUUU
### Response 6.74

### Prompt Query: apparent Kd; subject: UGAAAUCAUGUAGGAUAUGCAUGGCGAAGCUACGCAGAAGGACAUGAGGAUCACCCAUGUUAUAGCUACCCAGUUUGGUGGCAA
### Response 49.8

### Prompt Query: apparent Kd; subject: GGCCCGGGAGGAUAUACAUGAGGAUCACCCAUGUGCGGGCCCGGGAUCCCGGGCCCGUGUAGAAGGCCCGGGCC
### Response 13.4

### Prompt Query: apparent Kd; subject: GACUGCUGAGGAUAUACAUGAGGAUCACCCAUGUGCUUCAGUAUCGAAAGAUACAUUGGUAGAAGGUAGUAGUC
### Response 11.8

### Prompt Query: apparent Kd; subject: AAAAAGGGAGGAUAUACAUGAGGAUCACCCAUGUAAAAAAAAACAAAAAAAAAAAAAAGUAGAAGGCCCAAAAA
### Response 54.8

### Prompt Query: apparent Kd; subject: UUCCUGUCAGGAUAUGACUAGAUGCACGUUAGUGUGUUUACUUAGAAGGGACAUGAGGAUCACCCAUGUAUUCC
### Response 26.2

### Prompt Query: apparent Kd; subject: CAUUAAUUCAUUAUAGUUAUUAUACAGGAUAUGUUACAUGAGGAUCACCCAUGUAUUCAUGGUAAACAGAAGGGUAAUACUAGU
### Response 11.1

### Prompt Query: apparent Kd; subject: GUACUACAUGAGGAUCACCCAUGUCAGGAUAUGUGAAUUUCAUCAAAAGAUGAAAUUCGUAGAAGGGACAGUAC
### Response 22.2

### Prompt Query: apparent Kd; subject: UUUAGUUUAGGAUAUGUAGACAUUAACAUGAGGAUCACCCAUGUAGAUCCUGAAUUGGCUACAGAAGGGAGCAUUU
### Response 290

### Prompt Query: apparent Kd; subject: AAACUCAUUGUCAGGAUAUGUAUUGAAGGAAUCGGACAGAAGGGACAUGAGGAUCACCCAUGUUACUAAGACCC
### Response 25.9

### Prompt Query: apparent Kd; subject: UAUAAUCGAGGAUAUACAUGAGGAUCACCCAUGUGUUGCCGCGUGAUGUGUUUGUCAGGUAGAAGGCGAUUAUA
### Response 200

### Prompt Query: apparent Kd; subject: AACAGCUCGUCAGGAUAUAUUAUAUUUAUAUGGCUGAAUGUACAUGAGGAUCACCCAUGUAGUUUGUAGAAGGGACGAGCUGAA
### Response 11.6

### Prompt Query: apparent Kd; subject: CCCGCGAUGUCAGGAUAUAGUCGGAGGUUCAGACUAGAAGGGACAUGAGGAUCACCCAUGUGCGUGAAAAUUUAAAACCUAGGU
### Response 51.5

###

Test system: MS2 coat protein
experiment.notes: apparent Kd, MS2 coat protein; higher = weaker binding; RNA-MaP array; FMN 200 µM where present
condition.info: designed as: ON switch for flavin mononucleotide; no ligand
I'd be grateful if you could share measured apparent Kd for these entries.
Entry format: amount then unit.

### Prompt Query: apparent Kd; subject: AGUUACAUACUCAACAUGAGGAUCACCCAUGUACUCUCUUGUAAGGAUAUACAUUCGUAUUGAAAGUAGAAGGUACUAAUUAUG
### Response 89.1 nM

### Prompt Query: apparent Kd; subject: GGGUACCUCGGAGGAUAUCAUGUAAAUACAUGAGGAUCACCCAUGUCGAUGGAGACAUCGGAGAUUGAGAAGGCCGAUGUACCG
### Response 168 nM

### Prompt Query: apparent Kd; subject: CGCCGACAUGAGGAUCACCCAUGUCACAACUGGUCAGGAUAUGGUAUGAUUUGGCUAUUGCCAGAAGGGACCUCAG
### Response 50.5 nM

### Prompt Query: apparent Kd; subject: UGGGUGGUAUGAGGAUAUGCGCGCGAAACGCGCGCAGAAGGCAUGUCAAUAGACAUGAGGAUCACCCAUGUAUUAUCCAUCCAA
### Response 412 nM

### Prompt Query: apparent Kd; subject: GUACCUUAUGAGAAGGCGAUCAUUAAACAUGAUCGAGGAUAUCAUGAAAACAUGAGGAUCACCCAUGUAUGGGUAUUAUGGUAC
### Response 33.6 nM

### Prompt Query: apparent Kd; subject: UUCGAGUAGCAAGGAUAUCUUAUUUAGAUUUUAAGAGAAGGUGCUUCACAGCUACAUGAGGAUCACCCAUGUCUUUCUUCUUAU
### Response 35.6 nM

### Prompt Query: apparent Kd; subject: GACAAUCUAUCUGAGGAUAUCAUGAAAAAAACAUGAGGAUCACCCAUGUGCAGGAAAACUGCAUAUGAGAAGGCAGAUAGAUUGA
### Response 708 nM

### Prompt Query: apparent Kd; subject: GUGGUCAGACAUGAGGAUCACCCAUGUGGAAUAAAUAACGAACAGGAUAUGCAAUAUAGGAUAUAGUAGAAGGGUUGAUUGGUG
### Response 104 nM

### Prompt Query: apparent Kd; subject: GUAUGGAUUACAGGAUAUGUUAGUUUUAAGUGUAUUGGUUAUUACUUAAUUACAGAAGGGUAUUACAUGAGGAUCACCCAUGUA
### Response 16 nM

### Prompt Query: apparent Kd; subject: GUAGCAUUCUGAGGAUAUUCAUAUAAUAAAUAAACAUGAGGAUCACCCAUGUGGCGAAAGCCUUGGGAGAAGGCAGUAUGCUAC
### Response 660 nM

### Prompt Query: apparent Kd; subject: GGGUACAUCGGAGGAUAUCAUGUAAAUACAUGAGGAUCACCCAUGUCGAUGGAGACAUCGGAGGUUGAGAAGGCCGAUGUACCG
### Response 961 nM

### Prompt Query: apparent Kd; subject: GUGGAGUACGUAGGAUAUGUAGGAUAUUCCUACAUGAGGAUCACCCAUGUUUACAUGGAAGAAGGACAGAAGGACGUGCUCCAG
### Response 1430 nM

### Prompt Query: apparent Kd; subject: GUAGCAUACCAAGGAUAUUCAUAUAAUAAGUAAACAUGAGGAUCACCCAUGUAGUGAGAGCCUUGGGAGAAGGUGGAAUGCUAC
### Response 16.6 nM

### Prompt Query: apparent Kd; subject: AACAUGAGGAUCACCCAUGUCCCACCAGAAGGCUGGCGGUGGUGGUAAAGGCCACGACAAAUAACAGAGGAUAUGGUGAAUGCA
### Response 84.6 nM

### Prompt Query: apparent Kd; subject: AAUAUUUAUUGAGGAUAUUCAUACACUGUAUACGGAGAAGGCAAUCAAUCAUGAGGACAUGAGGAUCACCCAUGUUGUGACCAU
### Response 10.7 nM

### Prompt Query: apparent Kd; subject: AGUAACAUGCUCAACAUGAGGAUCACCCAUGUACUCUCUUGUAAGGAUAUACAAUCGUAUUGAUAGUAGAAGGUACCAAUUAAG
### Response 52.7 nM

### Prompt Query: apparent Kd; subject: AAGUUUGUACGAGGAUAUCAAUUGUUUCUAAAUUCAACAUGAGGAUCACCCAUGUAACAAUGGAGUGAGAAGGCGUGUGGGCAA
### Response 214 nM

### Prompt Query: apparent Kd; subject: UUGAAUUUAAACAUGAGGAUCACCCAUGUGUCAUAGUUGAUAUAGGAUAUGCUUAUACUUUGAAAGCAGAAGGAUGACGAUACU
### Response 26.3 nM

### Prompt Query: apparent Kd; subject: GGGUGAGACGAGAAGGGAUUUUCACAUGAGGAUCACCCAUGUCGAGUAGUCAGGAUAUCGGGCCAUGAUUACCCUAUAGAAGAC
### Response 298 nM

### Prompt Query: apparent Kd; subject: AAAAAAAAGGGUGAGGAUAUCGAAAAAAAAACAUGAGGAUCACCCAUGUGAAAAAAAAAAAAAUGCGAGAAGGCACUAAAAAAAAA
### Response 151 nM

### Prompt Query: apparent Kd; subject: CUGUCGAUAUCAGGAUAUCGUUUACAUACAUGAGGAUCACCCAUGUAGAUGAUCAGCCUAAUAUACGAGAAGGGAUAUCGAUAG
### Response 9.26 nM

### Prompt Query: apparent Kd; subject: UAAUCUCAGAUAGGAUAUAUAGGAUGAUUUAAGACUGAACAUGAGGAUCACCCAUGUGAUUAUCUGUAGAAGGAUCAAUGACCC
### Response 389 nM

### Prompt Query: apparent Kd; subject: AAUAUUUUUUGAGGAUAUUCAUACACUGUAUACGGAGAAGGCAAACAAUCAUGAGGACAUGAGGAUCACCCAUGUUGUGACCAU
### Response 20.1 nM

### Prompt Query: apparent Kd; subject: AAAAAACAUGAGGAUCACCCAUGUCUUCGGACAUGAGGAUAUGUACAGACUUCGGUCUGUACAGAAGGCAUGUCAA
### Response 166 nM

### Prompt Query: apparent Kd; subject: ACAUGAGGAUCACCCAUGUUGCGAGUAGAAGGCUAUAAGAAACGGGAUGAAGAAAUCCACGCAAUAGAGGAUAUACGAAUUGGA
### Response 12.1 nM

### Prompt Query: apparent Kd; subject: CCGGAUACGGGUAGCCUGACAUGAGGAUCACCCAUGUAAUACGAGGAUAUGGAUCCUAAUUGGAUCCAGAAGGUGUCAGGCUAC
### Response 1310 nM

### Prompt Query: apparent Kd; subject: AAAACAUGAGGAUCACCCAUGUAAAGAUCAGUUAAUAGAGGUGAGGAUAUACGAACUUAAAGGUAGUAGAAGGCACUGGGUACA
### Response 35.9 nM

### Prompt Query: apparent Kd; subject: ACAUUCUUUCGAGGAUAUCGGUGAUUAAUUUUACGAGAAGGCGAUUUAAGAUAUAAUAUUUUAGACAUGAGGAUCACCCAUGUA
### Response 26.1 nM

Source listed as the EternaBench riboswitch data.
